# Target Entity: Muscarinic acetylcholine receptor M4 (Homo sapiens)
# Sequence (P08173 whole entry): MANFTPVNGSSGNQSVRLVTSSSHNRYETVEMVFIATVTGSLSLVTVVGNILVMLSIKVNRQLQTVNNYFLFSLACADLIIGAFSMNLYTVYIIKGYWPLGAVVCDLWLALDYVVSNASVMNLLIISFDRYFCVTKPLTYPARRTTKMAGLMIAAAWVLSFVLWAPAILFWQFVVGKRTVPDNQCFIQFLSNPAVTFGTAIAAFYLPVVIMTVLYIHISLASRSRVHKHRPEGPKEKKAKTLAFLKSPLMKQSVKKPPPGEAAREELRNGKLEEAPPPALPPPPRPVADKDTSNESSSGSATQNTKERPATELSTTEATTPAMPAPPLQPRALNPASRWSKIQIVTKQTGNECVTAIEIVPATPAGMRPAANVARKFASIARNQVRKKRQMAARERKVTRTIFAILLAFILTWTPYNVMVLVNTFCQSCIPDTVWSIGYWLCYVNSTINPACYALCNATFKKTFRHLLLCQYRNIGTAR
Readout: Ki (nM)
Enter your answer as a number in nM; do not include the unit.

>>> experimental_result("C[N+]1(C)CCC[C@@H]1[C@@H]1C[S+]([O-])[C@](c2ccccc2)(C2CCCCC2)O1.[I-] (stereo in doubt; (-)-13)")
468
>>> experimental_result("C[N+]1(C)CCC[C@@H]1[C@@H]1C[S+]([O-])[C@@](c2ccccc2)(C2CCCCC2)O1.[I-] (stereo in doubt; (+)-15)")
302

Req: What value of Ki has been reported for the following compound? CN1CCC[C@@H]1[C@@H]1C[S+]([O-])[C@](c2ccccc2)(C2CCCCC2)O1 (stereo in doubt; (-)-6)
Resp: 355

====

Target sequence: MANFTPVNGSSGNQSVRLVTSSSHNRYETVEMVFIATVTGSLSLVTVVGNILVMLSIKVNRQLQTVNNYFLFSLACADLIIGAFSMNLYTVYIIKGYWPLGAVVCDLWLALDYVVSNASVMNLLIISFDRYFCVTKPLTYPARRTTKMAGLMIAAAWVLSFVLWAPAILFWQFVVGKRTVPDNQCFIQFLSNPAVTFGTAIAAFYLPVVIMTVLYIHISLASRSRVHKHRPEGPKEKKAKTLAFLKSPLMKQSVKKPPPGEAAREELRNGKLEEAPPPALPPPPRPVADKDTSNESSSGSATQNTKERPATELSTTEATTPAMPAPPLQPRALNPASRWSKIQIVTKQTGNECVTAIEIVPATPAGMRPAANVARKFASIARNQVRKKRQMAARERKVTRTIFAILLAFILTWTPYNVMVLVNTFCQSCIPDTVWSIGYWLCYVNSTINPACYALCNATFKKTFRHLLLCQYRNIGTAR
Readout: pKi
pKi here is simply -log10 of the concentration when that concentration is written in mol/L.

>>> experimental_result("C[N+]1(C)CCC[C@@H]1[C@@H]1C[S+]([O-])[C@@](c2ccccc2)(C2CCCCC2)O1.[I-] (stereo in doubt; (+)-14)")
7.72

Req: What value of pKi has been reported for the following compound? CN1CCC[C@H]1[C@H]1C[S+]([O-])C(c2ccccc2)(c2ccccc2)O1 (stereo in doubt; (-)-5)
Resp: 6.39

Req: What value of pKi has been reported for the following compound? CN1CCC[C@H]1[C@H]1C[S+]([O-])C(c2ccccc2)(c2ccccc2)O1 (stereo in doubt; (+)-4)
Resp: 5.99

Req: What value of pKi has been reported for the following compound? C[N+]1(C)CCC[C@H]1[C@H]1C[S+]([O-])C(c2ccccc2)(c2ccccc2)O1.[I-] (stereo in doubt; (+)-10)
Resp: 6.68

====

System: Muscarinic acetylcholine receptor M2 (Homo sapiens, UniProt P08172) | Read-out: Ki
Sequence (P08172 whole entry): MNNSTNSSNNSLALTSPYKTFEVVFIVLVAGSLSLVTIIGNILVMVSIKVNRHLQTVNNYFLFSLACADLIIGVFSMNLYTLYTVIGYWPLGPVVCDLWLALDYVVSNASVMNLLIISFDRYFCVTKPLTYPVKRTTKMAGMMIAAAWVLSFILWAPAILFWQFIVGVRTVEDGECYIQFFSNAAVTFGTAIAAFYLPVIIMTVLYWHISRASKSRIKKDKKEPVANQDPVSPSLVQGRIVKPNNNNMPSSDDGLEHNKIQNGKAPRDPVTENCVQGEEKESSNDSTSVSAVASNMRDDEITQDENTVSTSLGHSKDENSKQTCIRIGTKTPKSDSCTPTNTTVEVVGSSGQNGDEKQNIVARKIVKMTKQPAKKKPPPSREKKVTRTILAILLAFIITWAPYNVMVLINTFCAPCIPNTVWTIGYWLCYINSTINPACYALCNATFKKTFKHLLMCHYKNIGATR
Enter your answer as a number in nM; do not include the unit.

>>> experimental_result("CN1CCC[C@H]1[C@H]1C[S+]([O-])C(c2ccccc2)(c2ccccc2)O1 (stereo in doubt; (+)-4)")
562
>>> experimental_result("CN1CCC[C@H]1[C@H]1C[S+]([O-])[C@@](c2ccccc2)(C2CCCCC2)O1 (stereo in doubt; (+)-7)")
64.6
>>> experimental_result("CN1CCC[C@H]1[C@H]1C[S+]([O-])[C@](c2ccccc2)(C2CCCCC2)O1 (stereo in doubt; (-)-9)")
302
>>> experimental_result("CN1CCC[C@H]1[C@H]1C[S+]([O-])[C@](c2ccccc2)(C2CCCCC2)O1 (stereo in doubt; (-)-8)")
1450
>>> experimental_result("CN1CCC[C@@H]1[C@@H]1C[S+]([O-])[C@@](c2ccccc2)(C2CCCCC2)O1 (stereo in doubt; (+)-8)")
66.1

# ---- query compound ----
Req: What value of Ki has been reported for the following compound? C[N+]1(C)CCC[C@@H]1[C@@H]1C[S+]([O-])[C@@](c2ccccc2)(C2CCCCC2)O1.[I-] (stereo in doubt; (+)-15)
Resp: 77.6

====

# Target Entity: Muscarinic acetylcholine receptor M4 (Homo sapiens, UniProt P08173)
# Sequence (P08173 whole entry): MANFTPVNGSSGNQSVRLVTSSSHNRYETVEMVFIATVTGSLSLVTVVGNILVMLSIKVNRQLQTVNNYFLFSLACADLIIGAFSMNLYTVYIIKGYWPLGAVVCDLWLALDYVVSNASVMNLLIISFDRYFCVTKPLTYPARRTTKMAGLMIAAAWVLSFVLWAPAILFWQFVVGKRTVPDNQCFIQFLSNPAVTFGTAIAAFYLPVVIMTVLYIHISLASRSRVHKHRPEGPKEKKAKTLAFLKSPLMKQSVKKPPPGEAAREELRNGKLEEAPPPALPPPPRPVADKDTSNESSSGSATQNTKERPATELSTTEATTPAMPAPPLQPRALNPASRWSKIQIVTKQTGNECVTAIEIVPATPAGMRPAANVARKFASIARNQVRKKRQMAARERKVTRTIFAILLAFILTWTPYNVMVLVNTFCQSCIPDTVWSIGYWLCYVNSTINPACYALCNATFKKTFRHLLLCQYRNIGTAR
pKi: −log10 of the molar value.
Please use y whenever pKi is not below 7, and n whenever it is.

Solved entries:
>>> answer_label("CN1CCC[C@@H]1[C@@H]1C[S+]([O-])C(c2ccccc2)(c2ccccc2)O1 (stereo in doubt; (-)-4)")
"n"
>>> answer_label("C[N+]1(C)CCC[C@H]1[C@H]1C[S+]([O-])[C@@](c2ccccc2)(C2CCCCC2)O1.[I-] (stereo in doubt; (+)-12)")
"y"
>>> answer_label("CN1CCC[C@@H]1[C@@H]1C[S+]([O-])[C@](c2ccccc2)(C2CCCCC2)O1 (stereo in doubt; (-)-7)")
"y"

Attention now shifts to the item below.
Req: Entry C[N+]1(C)CCC[C@H]1[C@H]1C[S+]([O-])[C@](c2ccccc2)(C2CCCCC2)O1.[I-] (stereo in doubt; (-)-14) : is its pKi no less than 7?
Resp: n

====

# Procedure Summary: Antagonist activity against muscarinic M3 receptor in guinea pig ileum assessed as effect on ileum tension
# Type: functional, Cavia porcellus
In this section, each of the compounds is paired with its reported pKb.
# print the numeric value only

>>> experimental_result("C[N+]1(C)CCC[C@H]1[C@H]1C[S+]([O-])[C@@](c2ccccc2)(C2CCCCC2)O1.[I-] (stereo in doubt; (+)-12)")
7.03

Req: What value of pKb has been reported for the following compound? C[N+]1(C)CCC[C@@H]1[C@@H]1C[S+]([O-])[C@@](c2ccccc2)(C2CCCCC2)O1.[I-] (stereo in doubt; (+)-15)
Resp: 7.1

Req: What value of pKb has been reported for the following compound? C[N+]1(C)CCC[C@@H]1[C@@H]1C[S+]([O-])C(c2ccccc2)(c2ccccc2)O1.[I-] (stereo in doubt; (+)-11)
Resp: 7.62

Req: What value of pKb has been reported for the following compound? CN1CCC[C@H]1[C@H]1C[S+]([O-])[C@](c2ccccc2)(C2CCCCC2)O1 (stereo in doubt; (-)-9)
Resp: 7.1

====

# Procedure Summary: Antagonist activity against muscarinic M3 receptor in guinea pig ileum assessed as effect on ileum tension
# Type: functional, Cavia porcellus
Readout: pKb
# print the numeric value only

>>> experimental_result("CN1CCC[C@@H]1[C@@H]1C[S+]([O-])[C@](c2ccccc2)(C2CCCCC2)O1 (stereo in doubt; (-)-6)")
7.39
>>> experimental_result("C[N+]1(C)CCC[C@H]1[C@H]1C[S+]([O-])[C@](c2ccccc2)(C2CCCCC2)O1.[I-] (stereo in doubt; (-)-14)")
6.68
>>> experimental_result("C[N+]1(C)CCC[C@@H]1[C@@H]1C[S+]([O-])C(c2ccccc2)(c2ccccc2)O1.[I-] (stereo in doubt; (-)-10)")
7.5
>>> experimental_result("CN1CCC[C@H]1[C@H]1C[S+]([O-])[C@](c2ccccc2)(C2CCCCC2)O1 (stereo in doubt; (-)-8)")
5.95
>>> experimental_result("C[N+]1(C)CCC[C@H]1[C@H]1C[S+]([O-])C(c2ccccc2)(c2ccccc2)O1.[I-] (stereo in doubt; (+)-10)")
6.95
>>> experimental_result("CN1CCC[C@@H]1[C@@H]1C[S+]([O-])[C@@](c2ccccc2)(C2CCCCC2)O1 (stereo in doubt; (+)-8)")
7.71

# ---- query compound ----
Req: What value of pKb has been reported for the following compound? CN1CCC[C@@H]1[C@@H]1C[S+]([O-])C(c2ccccc2)(c2ccccc2)O1 (stereo in doubt; (-)-4)
Resp: 6.95
